Each item that follows carries a reported writhing inhibition relative to indomethacin (potency %) at 29 µmol/kg.
- Test system: Mus musculus
- Experimental Protocol: Analgesic activity in Swiss albino mouse assessed as inhibition of acetic acid-induced writhing at 0.029 mmol/kg. po dosed 1 hr before acetic acid challenge and measured during 30 mins post acetic acid challenge relative to indomethacin
- Format: functional
- Measurement Conditions: read-out: INH
The response must be a number in % with no trailing unit.

Problem: I have this molecule here, CCOC(=O)C/C(C)=N/NC(=O)c1nc2c(c(=O)[nH]1)C1CCCN1C(=O)N2c1ccccc1 (configuration not stated) , and I need its recorded writhing inhibition relative to indomethacin (potency %) at 29 µmol/kg.
Result: 1.77

Problem: I have this molecule here, Nc1cc(=O)[nH]n1C(=O)c1nc2c(c(=O)[nH]1)C1CCCN1C(=O)N2c1ccccc1 (configuration not stated) , and I need its recorded writhing inhibition relative to indomethacin (potency %) at 29 µmol/kg.
Result: 106

Problem: I have this molecule here, O=C(N/N=C/c1ccccc1)c1nc2c(c(=O)[nH]1)C1CCCN1C(=O)N2c1ccccc1 (configuration not stated) , and I need its recorded writhing inhibition relative to indomethacin (potency %) at 29 µmol/kg.
Result: 87.2

Problem: I have this molecule here, CCO/C=N/NC(=O)c1nc2c(c(=O)[nH]1)C1CCCN1C(=O)N2c1ccccc1 (configuration not stated) , and I need its recorded writhing inhibition relative to indomethacin (potency %) at 29 µmol/kg.
Result: 37.7

Problem: I have this molecule here, CC(C)=NNC(=O)c1nc2c(c(=O)[nH]1)C1CCCN1C(=O)N2c1ccccc1 (configuration not stated) , and I need its recorded writhing inhibition relative to indomethacin (potency %) at 29 µmol/kg.
Result: 89

Problem: I have this molecule here, Cc1c(NC(=O)c2nc3c(c(=O)[nH]2)C2CCCN2C(=O)N3c2ccccc2)c(=O)n(-c2ccccc2)n1C (configuration not stated) , and I need its recorded writhing inhibition relative to indomethacin (potency %) at 29 µmol/kg.
Result: 95.7

Problem: I have this molecule here, O=C(N/N=C/c1ccccc1O)c1nc2c(c(=O)[nH]1)C1CCCN1C(=O)N2c1ccccc1 (configuration not stated) , and I need its recorded writhing inhibition relative to indomethacin (potency %) at 29 µmol/kg.
Result: 104

Problem: I have this molecule here, NNC(=O)c1nc2c(c(=O)[nH]1)C1CCCN1C(=O)N2c1ccccc1 (configuration not stated) , and I need its recorded writhing inhibition relative to indomethacin (potency %) at 29 µmol/kg.
Result: 48.7

Problem: I have this molecule here, O=C(O)c1nc2c(c(=O)[nH]1)C1CCCN1C(=O)N2c1ccccc1 (configuration not stated) , and I need its recorded writhing inhibition relative to indomethacin (potency %) at 29 µmol/kg.
Result: 97.8

Problem: I have this molecule here, O=C(NN=C(c1ccccc1)c1ccccc1)c1nc2c(c(=O)[nH]1)C1CCCN1C(=O)N2c1ccccc1 (configuration not stated) , and I need its recorded writhing inhibition relative to indomethacin (potency %) at 29 µmol/kg.
Result: 124

Problem: I have this molecule here, Cc1cc(-c2ccccc2)nn1C(=O)c1nc2c(c(=O)[nH]1)C1CCCN1C(=O)N2c1ccccc1 (configuration not stated) , and I need its recorded writhing inhibition relative to indomethacin (potency %) at 29 µmol/kg.
Result: 59.8
